- TEST_SYSTEM: T1, SWSAP1 D96A (Walker B);hSWS1 (Homo sapiens;Homo sapiens, UniProt Q6NVH7;Q19AV6 22-250;1-140, D117A|)
- T1 sequence 1: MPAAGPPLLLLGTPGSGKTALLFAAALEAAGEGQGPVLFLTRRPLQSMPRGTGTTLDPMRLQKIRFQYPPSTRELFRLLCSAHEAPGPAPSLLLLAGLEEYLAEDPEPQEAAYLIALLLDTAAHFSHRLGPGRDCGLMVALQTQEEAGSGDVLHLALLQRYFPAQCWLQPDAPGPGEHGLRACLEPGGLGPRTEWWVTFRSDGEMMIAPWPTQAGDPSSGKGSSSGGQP
- T1 sequence 2: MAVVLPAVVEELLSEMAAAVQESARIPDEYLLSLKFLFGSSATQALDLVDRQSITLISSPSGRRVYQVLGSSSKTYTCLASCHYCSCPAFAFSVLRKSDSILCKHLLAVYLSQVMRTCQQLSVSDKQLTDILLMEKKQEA
- ASSAY_COMMENT: fluorescence polarization; no nucleotide; FPA: 5 nM 6-FAM DNA, 37 C, 2 mM nucleotide where stated (buffer not given in material); EMSA: 0.05 uM 6-FAM DNA, 5%/15% native PAGE; RAD51 filaments: 2 mM ATP
- PROTOCOL_CONDITIONS: protein: recombinant;recombinant; tags: N-terminal 6xHis-TEV, cleaved;none; copies: 1;1; label: 3' 6-FAM on strand 1; fork 1:2, 19 bp duplex, 20 nt arms
ATTRIBUTE_MEASURED: Kd (µM)
All answers are understood in µM, so give the number only.

Need Kd, item Fork (dsDNA) DNA 1: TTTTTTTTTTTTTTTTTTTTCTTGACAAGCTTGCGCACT DNA 2: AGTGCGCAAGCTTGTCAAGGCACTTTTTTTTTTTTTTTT 7.4

Data provenance is paper PMC12167799.
